meta.source: the NIST ThermoML archive (doi:10.1016/j.fluid.2014.06.024)

- procedure.summary: molar heat capacity at constant pressure
- experimental.parameters: 303.15 K; 101.33 kPa; Liquid; Small sample (50 mg) DSC
attribute.measured: molar heat capacity at constant pressure (J/K/mol)
Write the number in J/K/mol without appending the unit.

Sample answers from the record:
Cc1ccccc1Cl; 180.01
c1ccccc1; 136.4
C1CCOCC1 [tetrahydropyran]; 151.22
Cc1ccccc1; 158.61

Reported molar heat capacity at constant pressure for Cc1ccccc1C was 189.11

----------
- experimental.parameters: 303.15 K; 101.33 kPa; Liquid; Vibrating tube method
Numbers after ± are expanded uncertainties.
attribute.measured: mass density
Remember to quote the unit after the number.

Sample answers from the record:
Cc1ccccc1; 857.51 ± 1 kg/m3
Cc1ccccc1Cl; 1072.5 ± 1 kg/m3
Cc1ccccc1C; 871.7 ± 1 kg/m3
c1ccccc1; 868.2 ± 1 kg/m3

Now look at this entry.
Reported mass density for C1CCOCC1 [tetrahydropyran] was 873.99 ± 1 kg/m3

----------
- procedure.summary: molar heat capacity at constant pressure
- experimental.parameters: 298.15 K; 101.33 kPa; Liquid; Small sample (50 mg) DSC
attribute.measured: molar heat capacity at constant pressure (J/K/mol)
Write the number in J/K/mol without appending the unit.

Cc1ccccc1 [toluene]; 157.18
Cc1ccccc1Cl [2-chlorotoluene]; 178.21
c1ccccc1 [benzene]; 135.18
Cc1ccccc1C [1,2-dimethylbenzene]; 187.55

Reported molar heat capacity at constant pressure for C1CCOCC1 [tetrahydropyran] was 149.62

----------
- experimental.parameters: 308.15 K; 101.33 kPa; Liquid; Vibrating tube method
Numbers after ± are expanded uncertainties.
attribute.measured: mass density
Remember to quote the unit after the number.

Cc1ccccc1C; 867.48 ± 1 kg/m3
Cc1ccccc1Cl; 1067.6 ± 1 kg/m3
Cc1ccccc1; 852.82 ± 1 kg/m3
C1CCOCC1 [tetrahydropyran]; 868.83 ± 1 kg/m3

Reported mass density for c1ccccc1 was 862.84 ± 1 kg/m3

----------
Listed compounds paired with reported speed of sound
- experimental.parameters: 308.15 K; 101.33 kPa; Liquid; Sing-around technique in a fixed-path interferometer
Write the number in m/s without appending the unit.

Sample answers from the record:
Cc1ccccc1Cl; 1262.7
c1ccccc1; 1252.9
C1CCOCC1 [tetrahydropyran]; 1224.4
Cc1ccccc1; 1261.8

Reported speed of sound for Cc1ccccc1C was 1306.1

----------
- experimental.parameters: 303.15 K; 101.33 kPa; Liquid; Sing-around technique in a fixed-path interferometer
Listed compounds paired with reported speed of sound
Write the number in m/s without appending the unit.

Sample answers from the record:
c1ccccc1; 1276.1
C1CCOCC1 [tetrahydropyran]; 1246.8
Cc1ccccc1; 1283.2
Cc1ccccc1C; 1326.2

Now look at this entry.
Reported speed of sound for Cc1ccccc1Cl was 1280.7

----------
Listed molecules paired with reported mass density
- experimental.parameters: 298.15 K; 101.33 kPa; Liquid; Vibrating tube method
Numbers after ± are expanded uncertainties.
Remember to quote the unit after the number.

Cc1ccccc1Cl; 1077.3 ± 1 kg/m3
C1CCOCC1 [tetrahydropyran]; 879.13 ± 1 kg/m3
Cc1ccccc1; 862.18 ± 1 kg/m3
Cc1ccccc1C; 875.91 ± 1 kg/m3

Reported mass density for c1ccccc1 was 873.54 ± 1 kg/m3

----------
- experimental.parameters: 298.15 K; 101.33 kPa; Liquid; Sing-around technique in a fixed-path interferometer
attribute.measured: speed of sound (m/s)
Write the number in m/s without appending the unit.

Sample answers from the record:
Cc1ccccc1C; 1346.2
C1CCOCC1 [tetrahydropyran]; 1269.8
Cc1ccccc1Cl; 1298.7

Reported speed of sound for Cc1ccccc1 was 1304.6

Reported speed of sound for c1ccccc1 was 1299.4

----------
Listed compounds paired with reported molar heat capacity at constant pressure
- procedure.summary: molar heat capacity at constant pressure
- experimental.parameters: 308.15 K; 101.33 kPa; Liquid; Small sample (50 mg) DSC
Write the number in J/K/mol without appending the unit.

Sample answers from the record:
Cc1ccccc1; 160.09
C1CCOCC1 [tetrahydropyran]; 153.08
Cc1ccccc1C; 190.62
Cc1ccccc1Cl; 181.71

Now look at this entry.
Reported molar heat capacity at constant pressure for c1ccccc1 was 137.61
